Sourced from patent US20260183373A1

Target: T1, human IgG1 Fc (human, UniProt P01857-1 104-330 = IgG part, limits assumed)
T1 construct: domain: Fc; also called Fc domain of human IgG1
Assay: SPR: chimeric antibody captured by anti-mouse antibody on CM5 chip, human IgG1 Fc injected
endpoint label: binding result

RF61 chimeric antibody variant R50D Y34F LC, S62P D99H M100eF HC (mouse IgG2a constant domains) (antibody, V domains shown, Round 3 variant, one of the eight; copies: 2 + 2) VH: QLQLQESGPGLVKPSETLSLTCTVSGGSISRGSHYWGWIRQPPGKGLEWIGSIYYSGNTYFNPPLKSRVTISVDTSKNQFSLKLSSVTAADTAVYYCARLGPDHYTLDGFDVWGQGTTVTVSS VL: QSVLTQPPSASGTPGQRVTISCSGSSSNIGSNYVFWYQQLPGTAPKLLIYDNNQRPSGVPDRFSGSKSGTSASLAISGLRSEDEADYYCATWDDSLSAVIFGGGTKLTVL: binds
RF61 chimeric antibody variant R50D LC, S62P L95N T100aA D100cE M100eF HC (mouse IgG2a constant domains) (antibody, V domains shown, Round 3 variant, one of the eight; copies: 2 + 2) VH: QLQLQESGPGLVKPSETLSLTCTVSGGSISRGSHYWGWIRQPPGKGLEWIGSIYYSGNTYFNPPLKSRVTISVDTSKNQFSLKLSSVTAADTAVYYCARNGPDDYALEGFDVWGQGTTVTVSS VL: QSVLTQPPSASGTPGQRVTISCSGSSSNIGSNYVYWYQQLPGTAPKLLIYDNNQRPSGVPDRFSGSKSGTSASLAISGLRSEDEADYYCATWDDSLSAVIFGGGTKLTVL: binds
RF61 chimeric antibody variant R50N LC, S62P L95N D99H T100aA D100cE M100eF HC (mouse IgG2a constant domains) (antibody, V domains shown, Round 3 variant, one of the eight; copies: 2 + 2) VH: QLQLQESGPGLVKPSETLSLTCTVSGGSISRGSHYWGWIRQPPGKGLEWIGSIYYSGNTYFNPPLKSRVTISVDTSKNQFSLKLSSVTAADTAVYYCARNGPDHYALEGFDVWGQGTTVTVSS VL: QSVLTQPPSASGTPGQRVTISCSGSSSNIGSNYVYWYQQLPGTAPKLLIYNNNQRPSGVPDRFSGSKSGTSASLAISGLRSEDEADYYCATWDDSLSAVIFGGGTKLTVL: binds
